Target: T1, cynomolgus IL-1α (cynomolgus, UniProt P79340 113-271, limits assumed)
T1 sequence (looked up): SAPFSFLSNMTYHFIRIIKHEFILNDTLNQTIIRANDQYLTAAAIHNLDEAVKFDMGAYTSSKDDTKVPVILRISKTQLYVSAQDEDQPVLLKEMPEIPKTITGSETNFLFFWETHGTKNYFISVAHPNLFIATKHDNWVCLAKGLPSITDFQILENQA
Assay: cell-based or functional assay
Readout name: IC50 for Antibody (PM), MRC-5 bioassay (IL-1α-stimulated production of IL-8) (pM)
# value in pM; strip the unit string

INSERT INTO results (binder, unit_spec, observed_measurement) VALUES
  ('h3D12.r10 (antibody, V domains shown) VH: EIQLVQSGAEVKKPGASVKVSCKASGYTFAHYGMNWVRQAPGQGLEWMGWINTYTGQSTYADDFKGRFTFTLDTSTSTAYMELSSLRSEDTAVYYCARGIYYFGSNYAMDYWGQGTTVTVSS VL: DIQMTQSPSSLSASVGDRVTITCRASQDISNMLNWYQQKPGKTPKLLIYYTSRLRSGVPSRFSGSGSGTDYTFTISSLQPEDIATYFCQQGKKPPYTFGQGTKLEIK', 'pM', 0.98);

# ---- query binder ----
# input Which IC50 for Antibody (PM), MRC-5 bioassay (IL-1α-stimulated production of IL-8) reading was recorded for the binder h3D12.r37 (antibody, V domains shown) VH: EIQLVQSGAEVKKPGASVKVSCKASGYTFKYYGMNWVRQAPGQGLERMGWINTYTGESRYADDFKGRVTFTLDTSTSTAYMELSSLRSEDTAVYYCARDIYYFGSDYAMDYWGQGTTVTVSS VL: DIQMTQSPSSLSASVGDRVTITCRASQDISNRLNWYQQKPGKAPKLLIYYASRLKPGVPSRFSGSGSGTDYTFTISSLQPEDIATYFCQQGNTPPYTFGQGTKLEIK ?
# output 0.6
